System: Fathead minnow (Pimephales promelas) acute toxicity, lethality
Test: DSSTox (EPAFHM) EPA Fathead Minnow Acute Toxicity
Text: The EPA Fathead Minnow Acute Toxicity database was generated by the U.S. EPA Mid-Continental Ecology Division (MED) for the purpose of developing an expert system to predict acute toxicity from chemical structure based on mode of action considerations. […] A second valuable aspect of this database, from a QSAR modeling perspective, is the inclusion of general mode-of-action (MOA) classifications of acute toxicity response for individual chemicals derived from study results. […]
Observed Property: Potency

As a guide, the following entries are already answered.
Recorded Potency of Cc1ccccn1 , please.
9630 µM

Request: O=[N+]([O-])c1ccc(O)cc1C(F)(F)F
44.1 µM

Request: CC(=O)c1cccn1C
1280 µM

Request: CCCCC(=O)CCCC
218 µM

New cases:
Recorded Potency of c1ccc(SSc2ccccc2)cc1 , please.
0.504 µM

Request: Nc1ccc(F)cc1
152 µM

Request: c1ccc(CN2CCNCC2)cc1
269 µM

Reference source: PubChem BioAssay AID1188
